Tested on: MUC1-fs
Assay: High-content imaging assay of MUC1-fs total cytoplasm intensity in P cells
Type: cell-based
Details: MUC1-fs; DMSO = 0, JQ1 (250 nM) = −100% activity
Each item that follows carries a reported ECMax.
Your answer is read as %, so omit the unit and give the number.

Below, 2 compounds whose answers are already recorded.
compound	unit.info	ECMax
Cl.N[C@@H]1[C@H]2CC[C@H](C2)[C@H]1C1CC1 (single isomer, unassigned) [Compound 110-P2]	%	−47.09
CC(C)C[C@@H]1[C@@H]2CC[C@@H](C2)[C@H]1N.Cl (single isomer, unassigned) [Compound 112-P2]	%	13.14

Moving on to the next compound.
Using known records, supply ECMax for Cl.N[C@@H]1[C@H]2CC[C@H](C2)[C@H]1C1CCCCC1 (single isomer, unassigned) [Compound 119-P2]
0
